Target: OsWRKY34 (Oryza sativa, UniProt Q0JBA9 1-250)
Sequence (Q0JBA9 entry or part of it): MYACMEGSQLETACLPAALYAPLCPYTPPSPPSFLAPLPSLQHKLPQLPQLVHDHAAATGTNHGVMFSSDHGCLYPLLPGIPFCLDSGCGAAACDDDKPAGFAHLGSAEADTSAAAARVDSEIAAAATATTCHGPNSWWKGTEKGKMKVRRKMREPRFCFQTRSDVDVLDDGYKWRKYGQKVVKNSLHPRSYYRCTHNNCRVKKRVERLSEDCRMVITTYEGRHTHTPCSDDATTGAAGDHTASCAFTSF
Test: protein-binding microarray (RPBM); PBS, 2% BSA, 51.3 ng/ul salmon testes DNA, 50 uM zinc acetate, 200 nM TF, 25 C, 1 h; high values mean tight binding
Conditions: protein: recombinant; tags: N-terminal polyhistidine and DsRed monomer fusion (pET32a); label: CyDye5-dUTP incorporated in the synthesized complementary strand; 3' TTTTT single-stranded linker to array surface; dsDNA, one strand shown
In all, about 68,000 sequences were measured (“fluorescence intensity (a.u.)”: median about 9,100, highest 2% from about 16,000 on). What follows is part of a selection rich in the highest values, with near analogues and random picks from the rest.
For each of the sequences below, state its binding signal.

Examples with their reported binding signal follow.
CTCCGTCGCTGACTGCAACCTCCACCCACACGGCACCCATCGGAGTCACCTAGTGCAG 8090 fluorescence intensity (a.u.)
ATCTCTTAACCTTTTTCTTATTACCAAACATGCTAACGGTCGGAGTCACCTAGTGCAG 8030 fluorescence intensity (a.u.)
ACCGAAAGTTCAATTTGGTCCTTTACATTTTATTTTGTCCCGGAGTCACCTAGTGCAG 8240 fluorescence intensity (a.u.)
GATCTTGTGCACCTTACAAATTACATTGCCGACCATAAAACGGAGTCACCTAGTGCAG 9320 fluorescence intensity (a.u.)

We now examine a further sequence.
Please supply the value of reported binding signal for the item `ATCTATCACCATCTCTCCTTGATCTTGTGCACCTTACAAACGGAGTCACCTAGTGCAG`
16800 fluorescence intensity (a.u.)

Hello, the source for this data is paper PMC7819943, in case you need it.
